- targetOfAssay: kinases (Homo sapiens, UniProt P09619)
- Construct: purchased Eurofins/DiscoveRx; host or cells: E. coli BL21-derived host (T7 phage display) for most kinases; HEK-293 for the rest
- Sequence (P09619 33-1106): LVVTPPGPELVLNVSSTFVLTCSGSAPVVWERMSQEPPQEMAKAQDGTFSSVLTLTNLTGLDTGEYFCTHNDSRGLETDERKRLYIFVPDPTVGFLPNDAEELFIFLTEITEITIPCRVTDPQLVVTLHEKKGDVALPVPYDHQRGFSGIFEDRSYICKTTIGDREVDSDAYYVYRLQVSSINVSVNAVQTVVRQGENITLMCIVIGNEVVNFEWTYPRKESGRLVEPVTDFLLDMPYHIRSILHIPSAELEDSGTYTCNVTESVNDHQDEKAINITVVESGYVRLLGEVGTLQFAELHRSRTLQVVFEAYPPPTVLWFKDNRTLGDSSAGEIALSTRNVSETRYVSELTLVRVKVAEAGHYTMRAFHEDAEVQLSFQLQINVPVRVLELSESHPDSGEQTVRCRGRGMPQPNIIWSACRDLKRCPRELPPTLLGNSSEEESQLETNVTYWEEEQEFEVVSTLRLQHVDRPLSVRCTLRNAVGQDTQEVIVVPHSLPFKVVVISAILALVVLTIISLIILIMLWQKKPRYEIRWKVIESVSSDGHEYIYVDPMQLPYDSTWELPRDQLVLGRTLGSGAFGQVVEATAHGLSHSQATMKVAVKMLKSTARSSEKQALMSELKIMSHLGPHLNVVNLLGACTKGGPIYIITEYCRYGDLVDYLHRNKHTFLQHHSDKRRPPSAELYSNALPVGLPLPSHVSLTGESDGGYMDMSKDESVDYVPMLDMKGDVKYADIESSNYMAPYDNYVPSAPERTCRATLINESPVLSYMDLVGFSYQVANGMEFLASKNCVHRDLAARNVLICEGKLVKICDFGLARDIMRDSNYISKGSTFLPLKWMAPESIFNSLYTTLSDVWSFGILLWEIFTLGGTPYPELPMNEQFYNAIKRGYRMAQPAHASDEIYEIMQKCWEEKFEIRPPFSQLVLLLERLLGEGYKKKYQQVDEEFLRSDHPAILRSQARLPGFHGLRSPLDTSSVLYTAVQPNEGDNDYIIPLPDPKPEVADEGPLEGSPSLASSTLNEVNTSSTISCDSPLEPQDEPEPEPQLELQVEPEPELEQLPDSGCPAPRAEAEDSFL
- experiment: KINOMEscan kinase binding assay (Eurofins/DiscoveRx), % Ctrl
- conditionLabel: 1 μM; PDGFRB
- Description: Kinase binding assays were performed at Eurofins/DiscoveRx using the general KINOMEscan Protocol (Fabian, M. A. et al., “A small molecule-kinase interaction map for clinical kinase inhibitors,” Nat. Biotechnol. 2005, 23(3):329-36). For most assays, kinase-tagged T7 phage strains were prepared in an E. coli host derived from the BL21 strain. […] The kinase concentration in the eluates was measured by qPCR. […]
recordedEndpoint: % Ctrl, PDGFRB (% Ctrl)
Please reply with the bare figure in % Ctrl and do not write the unit itself.

Answered examples (3):
Cc1cc2c([nH]1)/C=C1\C(=O)Nc3ccc(cc31)O[C@@H](C)COCCN(C)C2=O; 71
CNC(=O)[C@H]1CN(C)C(=O)c2cc(C)[nH]c2/C=C2\C(=O)Nc3cc(Cl)c(cc32)OCCO1; 80
Cc1cc2c([nH]1)/C=C1\C(=O)Nc3ccc(cc31)-c1ccnn1CCNCCNC2=O; 98

Consider now this further molecule.
## Task State the recorded % Ctrl, PDGFRB for this entry: Cc1cc2c([nH]1)/C=C1\C(=O)Nc3cc(Cl)c(cc31)OCCOCCN(C)C2=O
## Result 1.4

###

- targetOfAssay: kinases (Homo sapiens, UniProt P00533, DEL752-759)
- Construct: purchased Eurofins/DiscoveRx; host or cells: E. coli BL21-derived host (T7 phage display) for most kinases; HEK-293 for the rest
- experiment: KINOMEscan kinase binding assay (Eurofins/DiscoveRx), % Ctrl
- conditionLabel: target EGFR(S752-I759del); 1 μM
Lab note - cut at 90 % Ctrl for % Ctrl, EGFR(S752-I759del): rule met if strictly below, rule not met if not.

Would you please look over these solved cases?
Cc1nn(C)c2c1-c1ccc3c(c1)/C(=C/c1[nH]ccc1C(=O)N(C)CCCO2)C(=O)N3 [Ex. 150]; rule not met
CN1CCSCCOc2cc3c(cc2Cl)NC(=O)/C3=C\c2[nH]ccc2C1=O [Ex. 153]; rule not met
Cc1cc2c([nH]1)/C=C1\C(=O)Nc3ccc(cc31)-c1c(C)nn(C)c1COCCN(C)C2=O [Ex. 146]; rule met
Cc1cc2c([nH]1)/C=C1\C(=O)Nc3ccc(cc31)-c1c(noc1C)CNCCN(C)C2=O [Ex. 139]; rule met
CN1CCOCCOc2cc3c(cc2Cl)NC(=O)/C3=C\c2[nH]ccc2C1=O [Ex. 143]; rule met

Would you kindly look at the next entry?
## Task Dear colleague, could you confirm whether % Ctrl, EGFR(S752-I759del) of Cc1cc2c([nH]1)/C=C1\C(=O)Nc3cnc(cc31)-c1cn[nH]c1CNCCN(C)C2=O [Ex. 55] falls below 90 % Ctrl? Thanks.
## Result rule met

###

- targetOfAssay: kinases (Homo sapiens, UniProt P10721, A829P)
- Construct: purchased Eurofins/DiscoveRx; host or cells: E. coli BL21-derived host (T7 phage display) for most kinases; HEK-293 for the rest
- Sequence (P10721 26-976 A829P): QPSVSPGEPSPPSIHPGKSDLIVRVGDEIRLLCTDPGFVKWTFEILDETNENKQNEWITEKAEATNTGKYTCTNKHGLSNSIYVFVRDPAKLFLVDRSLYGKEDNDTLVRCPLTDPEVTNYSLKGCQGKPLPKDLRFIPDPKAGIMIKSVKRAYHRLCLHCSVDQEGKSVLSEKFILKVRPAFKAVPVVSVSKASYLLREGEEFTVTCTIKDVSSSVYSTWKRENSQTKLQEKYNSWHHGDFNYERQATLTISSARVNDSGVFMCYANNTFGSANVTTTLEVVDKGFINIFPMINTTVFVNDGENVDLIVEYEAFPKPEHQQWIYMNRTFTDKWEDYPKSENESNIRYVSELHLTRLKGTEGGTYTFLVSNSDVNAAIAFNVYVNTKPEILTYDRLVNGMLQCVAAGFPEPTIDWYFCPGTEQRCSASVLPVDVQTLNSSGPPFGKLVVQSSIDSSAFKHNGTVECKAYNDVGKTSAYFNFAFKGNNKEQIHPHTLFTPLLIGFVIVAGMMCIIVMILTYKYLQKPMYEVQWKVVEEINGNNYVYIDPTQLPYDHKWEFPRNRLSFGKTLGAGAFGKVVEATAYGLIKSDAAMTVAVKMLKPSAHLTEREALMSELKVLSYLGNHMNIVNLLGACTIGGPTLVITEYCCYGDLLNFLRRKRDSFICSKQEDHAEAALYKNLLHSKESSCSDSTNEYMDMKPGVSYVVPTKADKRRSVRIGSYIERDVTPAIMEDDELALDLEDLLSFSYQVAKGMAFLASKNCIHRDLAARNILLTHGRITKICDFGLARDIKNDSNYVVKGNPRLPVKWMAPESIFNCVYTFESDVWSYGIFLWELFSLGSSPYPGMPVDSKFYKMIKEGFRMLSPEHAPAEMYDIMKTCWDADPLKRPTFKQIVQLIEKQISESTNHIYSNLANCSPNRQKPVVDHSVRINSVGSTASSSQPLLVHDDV
- experiment: KINOMEscan kinase binding assay (Eurofins/DiscoveRx), % Ctrl
- conditionLabel: 1 μM; KIT(A829P)
recordedEndpoint: % Ctrl, KIT(A829P) (% Ctrl)
Please reply with the bare figure in % Ctrl and do not write the unit itself.

CNC(=O)[C@H]1CN(C)C(=O)c2cc(C)[nH]c2/C=C2\C(=O)Nc3cc(Cl)c(cc32)OCCO1; 75

Consider now this further compound.
## Task State the recorded % Ctrl, KIT(A829P) for this entry: Cc1cc2c([nH]1)/C=C1\C(=O)Nc3ccc(cc31)-c1ccnn1CCOCCN(C)C2=O
## Result 45
